These measurements were taken from the Kinase Knowledgebase extract (Sharma et al. 2016).

- tested.system: PIK3CD (Human) (UniProt O00329)
- Sequence (O00329 whole entry, looked up): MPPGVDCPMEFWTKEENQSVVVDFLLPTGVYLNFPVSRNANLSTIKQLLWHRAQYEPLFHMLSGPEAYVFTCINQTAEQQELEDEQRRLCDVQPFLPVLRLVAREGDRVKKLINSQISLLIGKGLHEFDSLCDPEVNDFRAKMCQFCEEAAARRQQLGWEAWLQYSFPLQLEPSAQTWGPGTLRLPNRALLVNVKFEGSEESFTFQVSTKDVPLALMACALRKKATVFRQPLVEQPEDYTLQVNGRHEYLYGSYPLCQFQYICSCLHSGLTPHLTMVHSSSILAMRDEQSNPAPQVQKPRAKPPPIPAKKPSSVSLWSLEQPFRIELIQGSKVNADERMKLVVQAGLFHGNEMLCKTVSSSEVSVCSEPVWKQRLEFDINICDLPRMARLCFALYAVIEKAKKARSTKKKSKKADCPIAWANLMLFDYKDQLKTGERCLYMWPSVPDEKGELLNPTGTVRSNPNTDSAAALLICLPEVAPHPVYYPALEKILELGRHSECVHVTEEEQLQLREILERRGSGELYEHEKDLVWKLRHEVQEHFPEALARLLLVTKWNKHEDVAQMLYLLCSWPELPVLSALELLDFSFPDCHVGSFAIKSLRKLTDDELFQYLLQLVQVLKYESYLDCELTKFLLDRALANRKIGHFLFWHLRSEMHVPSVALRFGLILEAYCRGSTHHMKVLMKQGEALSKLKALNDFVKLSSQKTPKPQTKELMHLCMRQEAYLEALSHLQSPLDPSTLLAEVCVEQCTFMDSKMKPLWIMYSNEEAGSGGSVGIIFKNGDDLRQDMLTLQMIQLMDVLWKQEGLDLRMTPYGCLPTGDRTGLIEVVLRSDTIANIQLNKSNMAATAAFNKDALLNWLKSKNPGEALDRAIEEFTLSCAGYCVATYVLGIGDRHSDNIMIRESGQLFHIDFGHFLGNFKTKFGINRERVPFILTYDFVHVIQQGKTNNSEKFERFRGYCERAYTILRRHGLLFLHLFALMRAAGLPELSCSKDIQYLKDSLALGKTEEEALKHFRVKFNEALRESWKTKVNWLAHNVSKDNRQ
- experiment.notes: Enzyme Assay
With a cut-off of 0.03 µM, any IC50 strictly below it is called YES; any IC50 meeting it or above is called NO.

Data request: In the record for "Clc1ccccc1-c1nc2c(Cl)cccc2cc1CNc1ncnc2[nH]cnc12" , is IC50 less than 0.03 µM?
Data returned: NO

Data request: In the record for "Cc1ccccc1-c1nc2c(C)cccc2cc1[C@@H](C)Oc1ncnc2[nH]ccc12" , is IC50 less than 0.03 µM?
Data returned: NO

Data request: In the record for "C[C@H](Nc1ncnc2[nH]cnc12)c1cc2cccc(F)c2nc1-c1ccccn1" , is IC50 less than 0.03 µM?
Data returned: YES

Data request: In the record for "C[C@H](Nc1ncnc2[nH]cnc12)c1cc2cccc(Cl)c2nc1-c1cccc(F)c1" , is IC50 less than 0.03 µM?
Data returned: YES

Data request: In the record for "Cc1ncc(F)cc1-c1nc2c(Cl)cccc2cc1[C@H](C)Nc1ncnc2[nH]cnc12" , is IC50 less than 0.03 µM?
Data returned: YES

Data request: In the record for "C[C@H](Nc1ncnc2[nH]cnc12)c1cc2c(F)cc(F)cc2nc1-c1ccccn1" , is IC50 less than 0.03 µM?
Data returned: YES

Data request: In the record for "Cc1ccccc1-c1nc2c(C)cccc2cc1COc1ncnc2[nH]ccc12" , is IC50 less than 0.03 µM?
Data returned: NO

Data request: In the record for "C[C@H](Nc1ncnc2[nH]cnc12)c1nc2c(Cl)cccc2nc1-c1ccccn1" , is IC50 less than 0.03 µM?
Data returned: NO

----------
- tested.system: PIK3CD (Human)
- experiment.notes: Cell-Based Assay
- experimental.context: b cells
assay.endpoint: pIC50
Schema: pIC50 number; meaning minus log10 of the concentration expressed in molar units.

[[record]]
molecular_string = "C[C@H](Nc1ncnc2[nH]cnc12)c1cc2cccc(F)c2nc1-c1cccc(F)c1"
result = 8.28

[[record]]
molecular_string = "Cc1ncc(F)cc1-c1nc2c(Cl)cccc2cc1[C@H](C)Nc1ncnc2[nH]cnc12"
result = 7.77


Next compound, pIC50 to be filled in.
Given item "C[C@H](Nc1ncnc2[nH]cnc12)c1cc2ccc(F)cc2nc1-c1cccc(F)c1" , the value recorded as its pIC50 is 7.89

----------
- tested.system: PIK3CD (Human) (UniProt O00329)
- experiment.notes: Cell-Based Assay
- experimental.context: b cells
pIC50: −log10 of the molar value.
Would you please tag the item Yes when its pIC50 is 8 or above, and No when it is below?

Solved cases below.
[[record]]
molecular_string = "Cc1ccccc1-c1nc2c(C)cccc2cc1COc1ncnc2[nH]ccc12"
category = "No"

[[record]]
molecular_string = "Cc1ccccc1-c1nc2c(C)cccc2cc1[C@H](C)Oc1ncnc2[nH]ccc12"
category = "Yes"


Now look at this one.
Data request: Is reported pIC50 greater than or equal to 8 here: "Cc1ccccc1-c1nc2c(C)cccc2cc1COc1ncnc2[nH]cnc12"
Data returned: No

----------
- tested.system: PIK3CG (human)
- experiment.notes: Enzyme Assay
pIC50: −log10 of the molar value.
Would you please tag the item Fulfilled when its pIC50 is 6 or above, and Not fulfilled when it is below?

Solved cases below.
[[record]]
molecular_string = "COc1ccccc1-c1nc2c(C)cccc2cc1CSc1ncnc2[nH]cnc12"
category = "Not fulfilled"

[[record]]
molecular_string = "C[C@H](Nc1ncnc2[nH]cnc12)c1cc2cccc(F)c2nc1-c1cc(F)cc(F)c1"
category = "Fulfilled"

[[record]]
molecular_string = "Cc1ncc(F)cc1-c1nc2c(Cl)cccc2cc1[C@H](C)Nc1ncnc2[nH]cnc12"
category = "Fulfilled"

[[record]]
molecular_string = "C[C@H](Nc1ncnc2[nH]cnc12)c1cc2cccc(F)c2nc1-c1cc(F)ccc1F"
category = "Fulfilled"


Now look at this one.
Data request: Is reported pIC50 greater than or equal to 6 here: "C[C@H](Nc1ncnc2[nH]cnc12)c1cc2c(F)cc(F)cc2nc1-c1ccccn1"
Data returned: Fulfilled

----------
// reported IC50 for each item listed
- tested.system: PIK3CD (Human) (UniProt O00329)
- experiment.notes: Cell-Based Assay
- experimental.context: b cells
The response must be a number in nM with no trailing unit.

Consider the following illustrative entries.
[[record]]
molecular_string = "C[C@H](Nc1ncnc2[nH]cnc12)c1cc2cccc(F)c2nc1-c1cc(F)ccc1F"
assay_endpoint = "IC50"
result = 13

[[record]]
molecular_string = "C[C@H](Nc1ncnc2[nH]cnc12)c1nc2cccc(Cl)c2nc1-c1cccc(F)c1"
assay_endpoint = "IC50"
result = 14


Next compound, IC50 to be filled in.
Given item "C[C@H](Nc1ncnc2[nH]cnc12)c1cc2cccc(F)c2nc1-c1cc(F)cc(F)c1" , the value recorded as its IC50 is 11
